property-measured: melting point

[
  {
    "compound": "COc1ccc(N2C(=O)Cc3ccccc32)cc1",
    "property-measured": "melting point",
    "meas-value": "115 to 117 °C"
  },
  {
    "compound": "CCOC(=O)NNc1cc(C)c(-c2cccc([N+](=O)[O-])c2)nn1",
    "property-measured": "melting point",
    "meas-value": "186 to 187 °C"
  },
  {
    "compound": "CC(C)C1OC(=Nc2nccs2)c2c1nc1c(C(F)(F)F)cccc1c2O (stereo not given)",
    "property-measured": "melting point",
    "meas-value": "246 to 248 °C"
  }
]

Q: I would be grateful if you could share the reported melting point for `O=c1c(-c2ccccc2)ccc2n1CCSc1ccsc1-2` .
Result: 139 to 141 °C

Q: Request: `Cc1nc(-c2cccc(C(=O)Nc3ccc(Cl)cc3)c2)sc1C(=O)O`
Result: 246 to 248 °C

Q: Request: `CCCSc1sc(C(=O)N2CCCC2)c2c1-c1oncc1C(C)(C)C2`
Result: 72 to 76 °C

Q: Request: `COC(=O)NCc1cc(OC)cc(Cl)c1Cl`
Result: 90 to 91 °C

Q: Request: `CC(C)[C@H]1CC[C@H](C(=O)COS(=O)(=O)c2ccccc2)CC1`
Result: 48 to 49 °C

Q: Request: `CCc1cccc(CC(=O)O)c1OCCCc1cn(-c2ccc(Br)cn2)nc1C(C)C`
Result: 152 °C

Q: Request: CC1(C)CN(C2CCN(c3ccc(F)c(Cl)c3)C2=O)C1=O (stereo not given)
Result: 120 to 121 °C
